Assay: Biodistribution (γ-counter)
Assay type: in vivo, BALB/C nude mice
Conditions: male, BALB/C nude, mouse, tumor and lung, iv, total radioactivity; 10 min p.i.; mean ± SD, n = 3; read-out: Tumor/Lung ratio
Peptide text beside a SMILES is read from it. * marks the point of attachment. NOTA = O=C(O)CN1CCN(CC(=O)O)CCN(CC(=O)*)CC1; AEEEA = NCCOCCOCCOCC(=O)O
EXPERIMENTAL_ENDPOINT: tissue to tissue ratio at 10 min
Just the number, please.

Query string: tissue to tissue ratio at 10 min for CC[C@H](C)[C@H](NC(=O)[C@H](CCCNC(=N)N)NC(=O)CNC(=O)[C@H](CCC(=O)O)NC(=O)[C@H](CC(N)=O)NC(=O)[C@H](Cc1ccc(O)cc1)NC(=O)[C@H](CCCNC(=N)N)NC(=O)[C@H](Cc1ccc(O)cc1)NC(=O)[C@H](Cc1c[nH]cn1)NC(=O)COCCOCCOCCNC(=O)CN1CCN(CC(=O)O)CCN(CC(=O)O)CC1)C(=O)N[C@@H](CCCNC(=N)N)C(=O)N[C@@H](CC(N)=O)C(=O)O [[^68Ga]Ga-HN11-1, metal not drawn] ({NOTA-AEEEA}-HYRYNEGRIRN-OH) ?
Result string: 1.04
